Test system: Candida albicans
Assay: Antifungal activity against Candida albicans WTBF-50 by microbroth dilution method
Assay type: functional
Form field: MIC (one value per entry).
Supply the numeric figure in µg/mL, leaving out any unit text.

- COMPOUND: "CC(=O)O.c1cn2cc(-c3ccc(-c4ccc5cc(C6=NCCCN6)oc5c4)cc3)nc2cc1C1=NCCCN1"
  MIC, µg/mL: 8
- COMPOUND: "N=C(NCCN1CCOCC1)c1ccc2cc(-c3ccc(-c4cc5ccc(C(=N)NCCN6CCOCC6)cc5[nH]4)cc3)[nH]c2c1.O=C(O)C(F)(F)F"
  MIC, µg/mL: 2.52
- COMPOUND: "O=C(O)C(F)(F)F.c1cc2cc(-c3ccc(-c4cn5ccc(C6=NCCCN6)cc5n4)cc3)[nH]c2cc1C1=NCCCN1"
  MIC, µg/mL: 4
- COMPOUND: "N=C(NCCO)c1ccc2cc(-c3ccc(-c4cc5ccc(C(=N)NCCO)cc5[nH]4)cc3)[nH]c2c1.O=C(O)C(F)(F)F"
  MIC, µg/mL: 0.25

We next turn to a different compound, shown below.
Prompt: What value of MIC has been recorded for this entry: CC(=O)O.c1cc2cc(-c3cnc(-c4cc5ccc(C6=NCCCN6)cc5[nH]4)nc3)[nH]c2cc1C1=NCCCN1
Completion: 0.31

###

Tested on: Candida parapsilosis
Test: Antifungal activity against Candida parapsilosis ATCC 90018 WTBF-88 by microbroth dilution method
Format: functional
Details: Lodderomyces parapsilosis
READOUT_KIND: MIC (µg/mL)
Please reply with the bare figure in µg/mL and do not write the unit itself.

Solved entries:
- COMPOUND: "O=C(O)C(F)(F)F.c1cc2cc(-c3ccc(-c4nc5ccc(C6=NCCCN6)cc5[nH]4)cc3)[nH]c2cc1C1=NCCCN1"
  VALUE: 0.16
- COMPOUND: "CC(=O)O.c1cc2cc(-c3ccc(-c4cc5ccc(C6=NCCCN6)cc5o4)cn3)[nH]c2cc1C1=NCCCN1"
  VALUE: 0.13
- COMPOUND: "N=C(N)c1ccc(OCCCCCOc2ccc(C(=N)N)cc2)cc1"
  VALUE: 12.5
- COMPOUND: "CC(=O)O.c1cc2cc(-c3cnc(-c4cc5ccc(C6=NCCCN6)cc5[nH]4)cn3)[nH]c2cc1C1=NCCCN1"
  VALUE: 0.2
- COMPOUND: "CC1(C)CN=C(c2ccc3cc(-c4ccc(-c5cc6ccc(C7=NCC(C)(C)CN7)cc6[nH]5)cc4)[nH]c3c2)NC1.O=C(O)C(F)(F)F"
  VALUE: 8
- COMPOUND: "O=C(O)C(F)(F)F.OC1CN=C(c2ccc3cc(-c4ccc(-c5cc6ccc(C7=NCC(O)CN7)cc6[nH]5)cc4)[nH]c3c2)NC1 (centres undefined)"
  VALUE: 0.31
- COMPOUND: "N=C(NC1CCC(O)CC1)c1ccc2cc(-c3ccc(-c4cc5ccc(C(=N)NC6CCC(O)CC6)cc5[nH]4)cc3)[nH]c2c1.O=C(O)C(F)(F)F (centres undefined)"
  VALUE: 2
- COMPOUND: "Cl.N=C(N)c1ccc2cc(-c3ccc(-c4cc5ccc(C(=N)N)cc5[nH]4)cc3)[nH]c2c1"
  VALUE: 2
- COMPOUND: "N=C(NCCN1CCOCC1)c1ccc2cc(-c3ccc(-c4cc5ccc(C(=N)NCCN6CCOCC6)cc5[nH]4)cc3)[nH]c2c1.O=C(O)C(F)(F)F"
  VALUE: 2
- COMPOUND: "CC(=O)O.c1cc2cc(-c3ccc(-c4c[nH]c5cc(C6=NCCCN6)ccc45)cc3)[nH]c2cc1C1=NCCCN1"
  VALUE: 0.16

# ---- query compound ----
Prompt: Observed MIC on Candida parapsilosis for O=C(O)C(F)(F)F.c1cc2cc(-c3ccc(-c4cc5ccc(C6=NCCCN6)cc5[nH]4)cc3)[nH]c2cc1C1=NCCCN1 , please.
Completion: 0.1
